# EXPERIMENTAL_PROTOCOL: qHTS assay for small molecule antagonists of the retinoid-related orphan receptor gamma (ROR-gamma) signaling pathway - cell viability counter screen (AID 720652);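 note: compound exposure lasted 16 hr before ATP read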
# PROTOCOL_CONDITIONS: RORgamma reporter cell line viability counter screen; series mostly up to 92.2 µM
Records with an inconclusive call do not appear. Activity calls are given as the source filed them. Calls come from the whole dose curve; as a rule, active = well fitted cell-killing curve with a large enough effect in the repeat runs; inconclusive = weak or mixed curves, or effect the other way; inactive = flat fitted curve, though single readings scatter.
Your reply should match one of these outcome classes. YES (active), NO (inactive)

Below, 2 molecules whose answers are already recorded.
>  <SMILES_TEXT>
C[C@@H]1C[C@@H]([C@H](O)CC2CC(=O)NC(=O)C2)C(=O)[C@@H](C)C1

>  <ASSIGNED_CLASS>
NO

$$$$
>  <SMILES_TEXT>
O=C(CCl)c1ccc(Cl)cc1Cl

>  <ASSIGNED_CLASS>
YES

$$$$

Then this molecule:
Check the results log: what was the call for Oc1c(Br)cc(Br)cc1Br ? NO

----------
# System: Zika virus NS2B-NS3 protease
# EXPERIMENTAL_PROTOCOL: Primary screen GU AMC qHTS for Zika virus inhibitors (AID 1347154); note: nearly all actives have a fitted effect of over 70% in size
# PROTOCOL_CONDITIONS: Zika NS2B-NS3 unlinked protease, AMC fluorogenic substrate; series mostly up to 54.1 µM
Inconclusive results are not listed. Activity calls are given as the source filed them. Calls come from the whole dose curve; as a rule, active = well fitted inhibition curve with a large enough effect; inconclusive = small, poorly fitted or top-dose-only effect; inactive = flat fitted curve, though single readings scatter.
Form entry, call: pick from active, inactive

Solved entries (count: 3):
>  <COMPOUND>
CCN(Cc1ccc(Cl)nc1)/C(=C/[N+](=O)[O-])NC

>  <ASSIGNED_CLASS>
inactive

$$$$
>  <COMPOUND>
Cc1c(Cl)c(=O)oc2cc(OP(=O)(OCCCl)OCCCl)ccc12

>  <ASSIGNED_CLASS>
active

$$$$
>  <COMPOUND>
C[C@H]1C(=O)O[C@@H]2CCN3CC=C(COC(=O)[C@](C)(O)[C@]1(C)O)[C@H]23

>  <ASSIGNED_CLASS>
inactive

$$$$

Outcome? C1CN2CCC1CC2 inactive

Identify the outcome logged in this assay for the compound shown: C[C@@H]1CC[C@H]2[C@@H](C)C(=O)O[C@@H]3O[C@@]4(C)CC[C@@H]1[C@]32OO4 inactive

Could you please tell me the result logged for CC(C)C(Br)C(=O)NC(N)=O (stereo unspecified) in this assay? inactive

Could you kindly confirm the outcome this assay logged for O=c1n(Cl)c(=O)n(Cl)c(=O)n1Cl ? inactive

Please state the recorded outcome for this compound: COCC(=O)N(c1c(C)cccc1C)C(C)C(=O)OC (stereo unspecified) inactive

// outcome(item) with item = CN1C(=O)[C@@H](NC(=O)c2cc3ccccc3[nH]2)N=C(c2ccccc2)c2ccccc21 inactive

Status in this test for CC(Cc1ccccc1)NCCCCl (stereo unspecified) ? inactive

Record lookup: outcome of this test for CCNc1nc(Cl)nc(NCC)n1 ? inactive

Give the logged outcome of this assay for the following compound: OC(O)C(Cl)(Cl)Cl inactive

What classification did CC(Cc1ccc2c(c1)OCO2)NO (stereo unspecified) end up with in this test? inactive

Assay outcome for C[C@]12C=CC(=O)C=C1CC[C@@H]1[C@@H]2CC[C@@]2(C)[C@H]1CC[C@]2(C)O : what was it? inactive

Returns: the outcome recorded for CN1C[C@@H](NS(=O)(=O)N(C)C)C[C@@H]2c3cccc4c3c(cn4C)C[C@H]21 in this assay. inactive

Which outcome did this test record for the compound Nc1ccc(N)cc1 ? inactive

Query: recorded result category for NC(=O)CN1CCCC1=O in this test inactive

Per the records of this test, what outcome belongs to CC(C)[N+](C)(CCC(C(N)=O)(c1ccccc1)c1ccccc1)C(C)C ? inactive

Per the records of this test, what outcome belongs to Cc1ccc([N+](=O)[O-])[c]2c1[O][Hg]2 ? inactive

Outcome logged for C[C@@H]1C[C@@H]([C@H](O)CC2CC(=O)NC(=O)C2)C(=O)[C@@H](C)C1 in this assay: inactive

What is the recorded call for this compound in the test? CCCCC1C(=O)NC(=O)N(C2CCCCC2)C1=O (stereo unspecified) inactive

Dear colleague, could you share the recorded outcome for CC(C)(C)OC(=O)c1ncn2c1[C@@H]1CCCN1C(=O)c1c(Br)cccc1-2 when you have a moment? inactive

Per the assay record, what outcome was assigned to CN1C(=O)CN=C(c2ccccc2)c2cc(Cl)ccc21 ? inactive

How was CCCC(C)C1(CC)C(=O)N=C(S)NC1=O (stereo unspecified) classified in this test? inactive

What outcome does the record of this test show for CCOC(C(=O)OCCN(C)C)(c1ccccc1)c1ccccc1 ? inactive

Could you please tell me the result logged for CN1CCc2cc(Cl)c(O)cc2[C@H]2c3ccccc3CC[C@@H]21 in this assay? inactive

I would be grateful if you could indicate the recorded call for CC[C@H](O)C(C[C@H](C)N(C)C)(c1ccccc1)c1ccccc1 . inactive
